Data origin: ChEMBL document CHEMBL1201862

Test system: KM12
Assay: NCI tumour cell line growth inhibition, 48 h
Calls of active or inactive are those of the source. Rule as the data show it: active = GI50 up to about 1.1 µM and inactive = higher.
quantityName: GI50

Some compounds with known GI50 results, for comparison:
CCOC(=O)c1c2c(n3ccccc13)C(=O)c1ccccc1C2=O :: > 100 µM (inactive)
CCCCCCCCCCNC1CC(OC2CC(O)(C(O)CO)Cc3c(O)c4c(c(O)c32)C(=O)c2c(OC)cccc2C4=O)OC(C)C1O (stereo not given) :: 1.5 µM (inactive)
O=C(O)C(CS)NCc1c2ccccc2[n+]([O-])c2ccccc12 (stereo not given) :: 31.2 µM (inactive)
Cc1sc2nc3n(c(=O)c2c1C)N=C(c1ccccc1)CS3 :: > 100 µM (inactive)

// below: GI50 requested for another compound
Query :: I would be grateful if you could share the reported GI50 for CCOC(=O)Cc1ccc(Nc2nc3ccccc3nc2C(=O)OCC)cc1 .
Result :: > 100 µM (inactive)

---

Test system: SF-539
Test: NCI tumour cell line growth inhibition, 48 h
Activity calls are given as the source filed them. No stated cut-off is given here; in the data, active = GI50 up to about 1.1 µM and inactive = higher. Where a SMILES comes first, the peptide text is derived from it. [ ]: non-standard residue; d: D form. The star is where a group is joined. ξ: configuration not given here. ξF = NC(Cc1ccccc1)C(=O)O; Cbz = O=C(OCc1ccccc1)*; Aib = CC(C)(N)C(=O)O; NHNH2 = NN*
One label from this list, please: active, inactive

O=C(CNc1ccc(Cl)cc1Cl)Nn1c(-c2ccccc2)nc2ccccc2c1=O :: inactive

Query :: Which result was noted for this compound in the test: CCOC(=O)CCN1C(=O)c2ccc(NC(=O)C(=O)O)cc2S1(=O)=O
Result :: inactive

Query :: Which result was noted for this compound in the test: O=S(=O)(CC(O)C(Cl)(Cl)Cl)NNc1ccccc1 (stereo unspecified)
Result :: inactive

Query :: Which result was noted for this compound in the test: Cc1c([N+](=O)[O-])ccc2c(NCCCN(C)C)ccnc12
Result :: inactive

Query :: Which result was noted for this compound in the test: CC(=O)OC1(C#N)CC2OC1C1N=NN(C(=O)OC(C)(C)C)C21 (stereo unspecified)
Result :: inactive

Query :: Which result was noted for this compound in the test: CC(C)(NC(=O)OCc1ccccc1)C(=O)NC(Cc1ccccc1)C(=O)NN (stereo unspecified) (Cbz-[Aib]-[ξF]-NHNH2)
Result :: inactive

---

Tested on: RPMI-8226
Test: NCI tumour cell line growth inhibition, 48 h
Calls of active or inactive are those of the source. No stated cut-off is given here; in the data, active = GI50 up to about 1.1 µM and inactive = higher.
quantityName: GI50

Some molecules with known GI50 results, for comparison:
CSc1ccc(/C=C2\CNC/C(=C\c3ccc(SC)cc3)C2=O)cc1 :: > 79.8 µM (inactive)
CCOC(=O)c1nc2ccc(C(F)(F)F)cc2nc1Oc1cc(OC)c(OC)c(OC)c1 :: > 100 µM (inactive)
CC(=O)OCCOCn1c2c(c(=S)[nH]c1=O)CCC2 :: > 100 µM (inactive)
CC(=O)Nc1ccccc1[S+]([O-])c1ccccc1 (stereo unspecified) :: > 100 µM (inactive)
Cc1ccc(S(=O)(=O)c2ccccn2)cc1 :: > 100 µM (inactive)
COc1ccc(/C(=N/O)c2ccccc2C2=Nc3ccccc3C(NCc3ccccc3)O2)cc1C (stereo unspecified) :: 26.2 µM (inactive)

Query :: I would be grateful if you could share the reported GI50 for O=C(C#Cc1cnc(O)nc1O)c1ccccc1Cl .
Result :: 23.9 µM (inactive)

Query :: I would be grateful if you could share the reported GI50 for C#CCOCn1cnc2ncnc(N)c21 .
Result :: > 100 µM (inactive)

Query :: I would be grateful if you could share the reported GI50 for O=C(c1ccccc1)C(c1ccccc1)C1(O)C(=O)Nc2ccccc21 (stereo unspecified) .
Result :: > 100 µM (inactive)

Query :: I would be grateful if you could share the reported GI50 for COc1nc(Cl)nc(N[C@H](C)c2c3ccccc3cc3ccccc23)n1 .
Result :: 5.3 µM (inactive)

Query :: I would be grateful if you could share the reported GI50 for Cc1cn(CCCCCCOC(=O)NC(CCCNC(N)=O)C(=O)O)c(=O)[nH]c1=O (stereo unspecified) .
Result :: > 100 µM (inactive)

---

System: HCT-116
Test: NCI tumour cell line growth inhibition, 48 h
The source made the active and inactive calls. Cut-off read from the data, not from the text of the source: active = GI50 up to about 1.1 µM and inactive = higher.
GI50 reference

Some compounds with known GI50 results, for comparison:
Nc1ccc(/N=N/c2c(S(=O)(=O)O)cc3ccccc3c2S(=O)(=O)O)cc1 :: > 100 µM (inactive)
O=c1oc2c([N+](=O)[O-])cc([N+](=O)[O-])cc2c2ccccc12 :: > 100 µM (inactive)

Query :: I would be grateful if you could share the reported GI50 for O=C1C=Cc2c(I)sc(I)c21 .
Result :: 15.7 µM (inactive)

Query :: I would be grateful if you could share the reported GI50 for CC/C(=C\c1ccc(OC)cc1)c1ccc(OC)cc1 .
Result :: > 100 µM (inactive)

Query :: I would be grateful if you could share the reported GI50 for COc1cccc(C2c3cc4c(cc3OC(C)(N3CCCC3)C2C)OCO4)c1 (centres undefined) .
Result :: 7.62 µM (inactive)

Query :: I would be grateful if you could share the reported GI50 for CSCCC(NC(=O)C(Cc1c[nH]c2ccccc12)NC(=O)CCNC(=O)OC(C)(C)C)C(=O)NC(CC(=O)O)C(=O)NC(Cc1ccccc1)C(N)=O (centres undefined) .
Result :: > 50 µM (inactive)

Query :: I would be grateful if you could share the reported GI50 for Cc1cc(C)c(S(=O)(=O)N(CCCN)OCCCON(CCCN)S(=O)(=O)c2c(C)cc(C)cc2C)c(C)c1 .
Result :: 1.75 µM (inactive)

Query :: I would be grateful if you could share the reported GI50 for O=c1oc2c/c(=C\c3ccccc3)c(=O)c3cccc1c3-2 .
Result :: 25.7 µM (inactive)

Query :: I would be grateful if you could share the reported GI50 for COc1ccc(N2C(=O)C3ON(Cc4ccc(CC(N)=O)cc4)C(c4c5ccccc5c(C)c5ccccc45)C3C2=O)cc1 (centres undefined) .
Result :: 17.9 µM (inactive)

---

System: RXF 631
Experiment: NCI tumour cell line growth inhibition, 48 h
Activity calls are given as the source filed them. Cut-off read from the data, not from the text of the source: active = GI50 up to about 1.1 µM and inactive = higher.
One label from this list, please: active, inactive

Field: example entries. Status: answers known.
O=C(CCc1nnc2s/c(=C\c3ccc([N+](=O)[O-])cc3)c(=O)n12)Nc1ccc(Cl)c(Cl)c1 :: inactive
COc1ccccc1NC(=O)C1=C(C)NC(C)=C(C(=O)Nc2ccccc2OC)C1c1ccc(C2C(C(=O)Nc3ccccc3OC)=C(C)NC(C)=C2C(=O)Nc2ccccc2OC)cc1 :: inactive
CC(=O)Nc1ccccc1[S+]([O-])c1ccccc1 (stereo not drawn) :: inactive
CS(=O)(=O)CSCSSCS(C)(=O)=O :: inactive
N#C/C1=C(\N)CCSSSC1 :: inactive

Query :: Which result was noted for this compound in the test: Cc1ccc(S(=O)(=O)c2ccccn2)cc1
Result :: inactive

Query :: Which result was noted for this compound in the test: O=C(Nc1cccc(NC(=O)c2cc(=O)c3ccccc3o2)n1)c1cc(=O)c2ccccc2o1
Result :: inactive

Query :: Which result was noted for this compound in the test: CC(C)(C)NNC(=O)CCn1[nH]c(=O)c(Cl)c(Cl)c1=O
Result :: inactive

Query :: Which result was noted for this compound in the test: FC(F)(F)C1(Cl)C(c2ccccc2)=C1c1ccccc1
Result :: inactive

Query :: Which result was noted for this compound in the test: Cc1ccccc1NC(=O)C(=O)C(c1cnc2ccc([N+](=O)[O-])cc2n1)[N+](=O)[O-] (stereo not drawn)
Result :: inactive

Query :: Which result was noted for this compound in the test: CSc1ccc(/C=C2\CNC/C(=C\c3ccc(SC)cc3)C2=O)cc1
Result :: inactive

Query :: Which result was noted for this compound in the test: CC(C)(CN1CCCCC1)C(=O)/C=C/c1ccccc1
Result :: inactive

Query :: Which result was noted for this compound in the test: Sc1nnc(COc2ccc(Cl)cc2)o1
Result :: inactive

Query :: Which result was noted for this compound in the test: c1ccc2c(c1)cc(C1NCCc3nc[nH]c31)c1ccccc12 (stereo not drawn)
Result :: inactive

Query :: Which result was noted for this compound in the test: CN(C)CCNC(=O)c1cccc2c1nc(-c1ccccc1)c1ccccc12
Result :: active

Query :: Which result was noted for this compound in the test: CC(=O)N(C)OC(=O)CC(=O)c1ccccc1
Result :: inactive

Query :: Which result was noted for this compound in the test: CCOC(=O)CCn1[nH]c(=O)c(Cl)c(Cl)c1=O
Result :: inactive

Query :: Which result was noted for this compound in the test: Cc1ccc(NC(=O)CC(=O)n2nc(-c3ccccc3)c(/N=N/c3ccccc3C(=O)O)c2-c2ccccc2)cc1
Result :: inactive

---

GI50 reference
Test system: SN12C
Experiment: NCI tumour cell line growth inhibition, 48 h
Calls of active or inactive are those of the source. Cut-off read from the data, not from the text of the source: active = GI50 up to about 1.1 µM and inactive = higher.

Some compounds with known GI50 results, for comparison:
NC(=S)N/N=C1\CCCCc2ccccc21 :: > 10 µM (inactive)
CCCCCc1cc(CCCC)sc1-c1ccco1 :: > 100 µM (inactive)
COc1cccc2c1-c1nc(N)c3c(OC)cccc3c1C2=O :: 95.1 µM (inactive)
CC(=O)Oc1c(OC(C)=O)c(-c2ccc(O)c(O)c2)c(O)c(O)c1-c1ccc(O)cc1 :: > 100 µM (inactive)
CC1(C)Oc2ccc3c(=O)cc(-c4cccs4)oc3c2C1C(=O)O (stereo not given) :: > 100 µM (inactive)
O=S(=O)(c1ccc2ccccc2c1)N1CCN(S(=O)(=O)c2ccc3ccccc3c2)CC1 :: > 100 µM (inactive)
O=C(CCc1n[nH]c(=S)o1)Nc1ccc(Cl)cc1Cl :: > 100 µM (inactive)
CC/C(=C\c1ccc(OC)cc1)c1ccc(OC)cc1 :: > 100 µM (inactive)

Query :: Provide the documented GI50 with SN12C as the system for CC(=O)OCCOCn1c2c(c(=S)[nH]c1=O)CCC2
Result :: > 100 µM (inactive)

Query :: Provide the documented GI50 with SN12C as the system for NC1(CCNC(=O)c2ccccc2)CCN(C(=O)c2ccccc2)CC1
Result :: > 100 µM (inactive)

Query :: Provide the documented GI50 with SN12C as the system for CC1(C)C2CC3C(C)(C2)C31c1cc(Cl)ccc1N (stereo not given)
Result :: 14.4 µM (inactive)

Query :: Provide the documented GI50 with SN12C as the system for COc1ccc(/C(=N/O)c2ccccc2C2=Nc3ccccc3C(NCc3ccccc3)O2)cc1C (stereo not given)
Result :: 22.9 µM (inactive)

Query :: Provide the documented GI50 with SN12C as the system for C[n+]1[n-]o/c(=N\N=O)c1-c1cc(-c2/c(=N/N=O)o[n-][n+]2C)cc(-c2/c(=N\N=O)o[n-][n+]2C)c1
Result :: > 100 µM (inactive)
